# TARGET_ENTITY: T1, recombinant human FcRn (Sino Biological Inc. Cat. No. CT009-H08H) (human, UniProt P55899 24-290; P61769 21-119)
# T1 construct: Bought protein; also called hFcRn (SINO); immobilized FcRn
# METHOD_DESCRIPTION: scFv competition ELISA vs biotinylated parent murine antibody, captured FcRn, pH 7.4
I'd be grateful if you could share measured fold decrease in IC50 (relative to humanized parent scFV) for these entries.
# include the unit after the value

Below, 2 binders whose answers are already recorded.
H1 VH1 scFv with humanized parental Vκ1 (scFv, from bacterial periplasmic extracts) scFv: QVQLVQSGAELKKPGASVKLSCKASGYTFTSYGISWVKQATGQGLEWIGEIYPRSGNTYYNEKFKGRATLTADKSTSTAYMELRSLRSEDSAVYFCARSTTVSPPPLWGTGTTVTVSSGGGGSGGGGSGGGGSDIQMTQSPSYLSASVGDRVTITCKASDHINNWLAWYQQKPGQAPRLLISGATSLETGVPSRFSGSGTGKDYTLTISSLQTEDFATYYCQQYWSTPYTFGGGTKVEIK
36.4 fold
H4 VH1 scFv with humanized parental Vκ1 (scFv) scFv: QVQLVQSGAELKKPGASVKLSCKASGYTFTSYGISWVKQATGQGLEWIGEIYPRSGNTYYNEKFKGRATLTADKSTSTAYMELRSLRSEDSAVYFCARSTTVSAPGVWGTGTTVTVSSGGGGSGGGGSGGGGSDIQMTQSPSYLSASVGDRVTITCKASDHINNWLAWYQQKPGQAPRLLISGATSLETGVPSRFSGSGTGKDYTLTISSLQTEDFATYYCQQYWSTPYTFGGGTKVEIK
9.29 fold

Continue with the binder presented below.
For this binder ( C4 VH1 scFv with humanized parental Vκ1 (scFv) scFv: QVQLVQSGAELKKPGASVKLSCKASGYTFTSYGISWVKQATGQGLEWIGEIYPRSGNTYYNEKFKGRATLTADKSTSTAYMELRSLRSEDSAVYFCARSTTVAPPRLWGTGTTVTVSSGGGGSGGGGSGGGGSDIQMTQSPSYLSASVGDRVTITCKASDHINNWLAWYQQKPGQAPRLLISGATSLETGVPSRFSGSGTGKDYTLTISSLQTEDFATYYCQQYWSTPYTFGGGTKVEIK ), measured fold decrease in IC50 (relative to humanized parent scFV) is 24.4 fold

Each recorded value in this set is attributed to patent US20200181262A1.
